biological target: Inadl_5, Q8NI35; experiment: holdup assay; design: key: below the threshold = too weak to quantify, mostly under pKd 3.1 to 4; conditions: plain residues with an end cap or a label only (N-terminal biotin on a linker: ahx)
Sequence (Q8NI35 673-780): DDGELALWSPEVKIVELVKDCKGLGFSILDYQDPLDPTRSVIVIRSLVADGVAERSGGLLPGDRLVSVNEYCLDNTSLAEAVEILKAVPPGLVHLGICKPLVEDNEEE
measurementType: pKd

Worked cases, pKd given:
{"binder": "APSRKLNTEI [TIAM1, Q13009]", "pKd": "below the threshold"}
{"binder": "TQKFRASTAL [FRMPD1, Q5SYB0]", "pKd": "below the threshold"}
{"binder": "HTHSYIETHV [CNKSR2, Q8WXI2]", "pKd": "below the threshold"}
{"binder": "QNTDDVQTSF [ACE2, Q9BYF1]", "pKd": "below the threshold"}

Would you kindly look at the next entry?
### Prompt Fill in pKd for record QDEKVKESYV [ABCA1, O95477]
### Response 3.73

Data provenance is paper PMC9482650.
